assayTarget: biotinylated human DLL3 protein expressed as a human IgG1 fusion protein (human) (UniProt Q9NYJ7)
Sequence (Q9NYJ7 other isoform, or with tags, fused parts or gaps): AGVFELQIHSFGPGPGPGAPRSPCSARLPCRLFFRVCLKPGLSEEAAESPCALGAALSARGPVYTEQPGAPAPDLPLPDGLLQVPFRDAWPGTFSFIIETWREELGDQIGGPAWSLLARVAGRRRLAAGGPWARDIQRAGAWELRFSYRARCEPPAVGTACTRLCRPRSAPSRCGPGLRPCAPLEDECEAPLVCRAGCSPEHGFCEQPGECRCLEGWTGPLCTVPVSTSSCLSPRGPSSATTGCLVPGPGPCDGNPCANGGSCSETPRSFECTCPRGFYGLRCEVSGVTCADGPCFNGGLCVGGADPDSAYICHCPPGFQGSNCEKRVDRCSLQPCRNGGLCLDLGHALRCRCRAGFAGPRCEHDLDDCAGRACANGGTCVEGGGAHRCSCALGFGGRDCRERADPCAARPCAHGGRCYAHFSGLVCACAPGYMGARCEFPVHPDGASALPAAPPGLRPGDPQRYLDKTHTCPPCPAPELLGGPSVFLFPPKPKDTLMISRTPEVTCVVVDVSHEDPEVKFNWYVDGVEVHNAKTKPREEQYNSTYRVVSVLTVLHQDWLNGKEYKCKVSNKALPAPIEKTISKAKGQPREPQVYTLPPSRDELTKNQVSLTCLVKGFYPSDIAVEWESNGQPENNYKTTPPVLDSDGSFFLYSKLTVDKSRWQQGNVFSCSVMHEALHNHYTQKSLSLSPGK
assayProtocol: Octet BLI; biotinylated huDLL3-IgG1 fusion on streptavidin tips; single 50 nM; conditioned medium
Listed here are binders together with their documented Kd.
Return type: number; implicit unit nM.

anti-DLL3 trispecific protein 1B01 (protein, part only; not given: anti-CD3 fragment and anti-albumin sdAb, part only) chain, part: EVQLVESGGGLVQPGGSLTLSCVASGSTSIINAMGWYRRAPGKQRELAAGISSDGSKVIADSVKGRFTISRDNAKNSVYLQMNSLRAEDTAVYYCYYFRRVSGSSMRYWGQGTLVTVSSGGGGSGGGSGGGGSGGGSHHHHHH :: 5.2
anti-DLL3 trispecific protein 2A011 (protein, part only; not given: anti-CD3 and anti-albumin domains, part only) chain, part: EVQLVESGGGLVQPGGSLTLSCVASGSTSSINAIGWYRRAPGKQRELVAGISSDGSKVYSDSVKGRFTISRDNAKNSVYLQMNSLRAEDTAVYYCYYFRPVSGSSMRYWGQGTLVTVSSGGGGSGGGSGGGGSGGGSHHHHHH :: 4
anti-DLL3 trispecific protein 2C07 (protein, part only; not given: anti-CD3 and anti-albumin domains, part only) chain, part: EVQLVESGGGLVQPGGSLTLSCVASGSTSSINAMAWYRRAPGKQRELVAGISSDGSKVYADSVKGRFTISRDNAKNSVYLQMNSLRAEDTAVYYCYYFRSVSGSSMRYWGQGTLVTVSSGGGGSGGGSGGGGSGGGSHHHHHH :: 6.2

Now turn to the next binder.
The recorded Kd for anti-DLL3 trispecific protein 1D012 (protein, part only; not given: anti-CD3 fragment and anti-albumin domain, part only) chain, part: EVQLVESGGGLVQPGGSLTLSCVASGSTSHINAMGWYRRAPGKQRELVAGISSDGSRVYADSVKGRFTISRDNAKNSVYLQMNSLRAEDTAVYYCYYFRTVSGGSMRYWGQGTLVTVSSGGGGSGGGSGGGGSGGGSHHHHHH is 9.3
